TARGET_OF_ASSAY: T1, CbpM (residues 2-101), species not named for the experiment ( (E. coli K-12 or K. …, UniProt P63264 2-101))
T1 construct: CbpM residues 2-101; the immobilisation is told there; also called immobilized CbpM; source: E. coli Rosetta pLysS, purified (Ni-NTA, tag cleaved, amylose resin, size exclusion); not shown: His-MBP, N-terminal, cleaved
T1 sequence: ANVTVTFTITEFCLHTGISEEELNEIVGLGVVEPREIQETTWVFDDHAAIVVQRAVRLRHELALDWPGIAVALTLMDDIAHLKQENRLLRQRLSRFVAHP
RUN_DESCRIPTION: SPR; CbpM immobilised, DnaJ^Jdom variants injected (50 µL/min, 120 s); ProteOn XPR36, 25°C, 50 mM sodium phosphate pH 7.4, 100 mM NaCl, 1 mM DTT, 0.005% Tween 20; steady-state equilibrium fit (one site)
CONDITION_PARAMETERS: both partners purified
ENDPOINT_LABEL: Kd (µM)
Give your result in µM as a bare value.

Find the recorded Kd belonging to Chimeric DnaJ^Jdom(25-47): DnaJ J-domain with the central region Y25-F47 replaced by that of CbpA^Jdom (domain or fragment, E. coli, UniProt P08622 2-79, looked up, DnaJ of E. coli, J-domain, residues 2-79, with residues 25-47 replaced by residues 25-46 of E. coli CbpA; also called chimera DnaJ^Jdom (25-47); source: E. coli Rosetta pLysS, purified (glutathione sepharose, tag cleaved, size exclusion); not shown: GST, N-terminal, cleaved) AKQDYYEILGVSKTAEEREIRKAYRRLARKYHPDVSKEPDAEARFKEIKEAYEVLTDSQKRAAYDQYGHAAFEQGGM and report it.
26
